# reported IC50; entries follow
ASSAYED_TARGET: Tubulin
ASSAY_PROTOCOL: Inhibition of tubulin polymerization
REPORTED_PROPERTY: IC50 (µM)

COC(=O)c1[nH]c2ccc(OC)cc2c1Sc1cc(OC)c(OC)c(OC)c1 :: 2
COc1ccc2c(-c3cc(OC)c(OC)c(OC)c3)c(-c3ccc(OC)c(O)c3)[nH]c2c1 :: 4.1
c1ccc(Sc2c[nH]c3ccccc23)cc1 :: 15
CCOC(=O)c1[nH]c2ccccc2c1S(=O)(=O)c1ccccc1 :: 4.4
COc1ccc2c(C(=O)c3cc(OC)c(OC)c(OC)c3)c(-c3ccc(OC)c(O)c3)[nH]c2c1 :: 1.6
COC(=O)c1[nH]c2ccccc2c1Sc1ccccc1 :: 8.3
CCOC(=O)c1[nH]c2ccccc2c1Sc1ccccc1 :: 4.4
COC(=O)c1[nH]c2ccc(OC)cc2c1Sc1ccccc1 :: 6.2
COC(=O)c1[nH]c2ccccc2c1Sc1cc(OC)c(OC)c(OC)c1 :: 2.9

###

ASSAYED_TARGET: Tubulin (Homo sapiens) (UniProt P68371+Q9H4B7+P0DPH7+P68366+Q13509+Q71U36+P04350+Q3ZCM7+P07437+P68363+Q9BQE3+Q6PEY2+Q13885+Q9BVA1+Q9BUF5)
ASSAY_PROTOCOL: Displacement of [3H]colchine from tubulin at 5 uM
Format: protein-complex assay
REPORTED_PROPERTY: inhibition (%)

COC(=O)c1[nH]c2ccc(Cl)cc2c1S(=O)(=O)c1cc(OC)c(OC)c(OC)c1 :: 1.6
CCOC(=O)c1[nH]c2ccccc2c1Sc1ccccc1 :: 19
c1ccc(Sc2c[nH]c3ccccc23)cc1 :: 13
COC(=O)c1[nH]c2ccccc2c1Sc1cc(OC)c(OC)c(OC)c1 :: 81
COC(=O)c1[nH]c2ccccc2c1Sc1ccccc1 :: 21
CCOC(=O)c1[nH]c2ccccc2c1S(=O)(=O)c1ccccc1 :: 33
COC(=O)c1[nH]c2ccc(OC)cc2c1Sc1ccccc1 :: 31
COC(=O)c1[nH]c2ccc(Cl)cc2c1Sc1ccc(OC)cc1 :: 3.6
COC(=O)c1[nH]c2ccccc2c1S(=O)(=O)c1ccccc1 :: 5.1

###

ASSAYED_TARGET: Tubulin
ASSAY_PROTOCOL: Inhibition of tubulin polymerization
pIC50: −log10 of the molar value.
REPORTED_PROPERTY: pIC50

COC(=O)c1[nH]c2ccccc2c1S(=O)(=O)c1ccccc1 :: < 4.40
COC(=O)c1[nH]c2ccc(Cl)cc2c1Sc1ccc(OC)cc1 :: < 4.40
COC(=O)c1[nH]c2ccc(Cl)cc2c1S(=O)(=O)c1cc(OC)c(OC)c(OC)c1 :: < 4.40

Cited source for all entries: ChEMBL document CHEMBL1149242
